system: 3',5'-Cyclic-AMP phosphodiesterase (PDE); assay: Inhibition of PDE from rabbit lung, high affinity (Fraction II, low Km); format: biochemical; conditions: cAMP 1.6 × 10^-7 M, relative to theophylline
Lab note: anything with α Lung at or over 4 counts as 1; the rest go in 0.

| molecule | tested target | group label |
| --- | --- | --- |
| Cc1cc(C)n2ncc(I)c2n1 [III] | 3',5'-Cyclic-AMP phosphodiesterase (PDE) | 0 |
| Cc1cc(C)n2ncc(Br)c2n1 [Example I] | 3',5'-Cyclic-AMP phosphodiesterase (PDE) | 0 |
| Cc1cc(C)n2ncc(Cl)c2n1 [II] | 3',5'-Cyclic-AMP phosphodiesterase (PDE) | 0 |
| CCc1cc(CC)n2ncc(Br)c2n1 [XVI] | 3',5'-Cyclic-AMP phosphodiesterase (PDE) | 1 |
| CCc1cc(C)nc2c(Br)cnn12 [XIV] | 3',5'-Cyclic-AMP phosphodiesterase (PDE) | 1 |
| CCCc1cc(CCC)n2ncc(Br)c2n1 [XVII] | 3',5'-Cyclic-AMP phosphodiesterase (PDE) | 1 |
| CCCc1cc(C)nc2c(Br)cnn12 [XV] | 3',5'-Cyclic-AMP phosphodiesterase (PDE) | 1 |

Ref: patent US4093617A
